test system: CAKI-1 renal; assay: NCI tumour cell line growth inhibition, 48 h
Below: a set of entries, each annotated with reported TGI.
Measurement Label: TGI (µM)

- O=S(=O)(O)c1c(Cl)c(Cl)c(O)c2ncccc12: 65.4
- CCOC(=O)c1c(C)n([O-])c2cc(F)c(F)cc2[n+]1=O: 3.04
- O=C(/C=C(/C=C/c1cccc2[nH]ccc12)OB(F)F)/C=C/c1cccc2[nH]ccc12: 3.13
- CCOC(=O)C(C(=O)OCC)c1cc(-c2cc3ccccc3o2)oc(=O)c1C#N: 38.1

###

Below: a set of entries, each annotated with reported TGI.
tested on: HS 578T breast; assay: NCI tumour cell line growth inhibition, 48 h
Measurement Label: TGI (µM)

* N#CC1=C(N)N=C(N2CCOCC2)C(C#N)C12Nc1ccccc1S2 (stereo not given) | 7.17
* CCN1CCN(Cc2ccc(NC(=O)Nc3nc(-c4cc(OC)c(OC)c(OC)c4)cs3)cc2C(F)(F)F)CC1 | 5.04
* COc1ccc(OC(=O)N2C/C(=C\c3ccccc3)C(=O)/C(=C/c3ccccc3)C2)cc1 | 7.33
* CCCCCCCCCCCCC(O)C1CCC(C(O)CCCCC(O)CCCCCC2CC(CC(C)=O)C(=O)O2)O1 (stereo not given) | 3.8
* COc1ccc2nc3cc([N+](=O)[O-])ccc3c(NCCO)c2c1 | 26.2

###

test system: TK-10 renal; experiment: NCI tumour cell line growth inhibition, 48 h; in the data active means GI50 below about 0.43 µM; inactive means the rest
Classes used: active, inactive

• Cc1cc(S(=O)(=O)Nc2nc3ccccc3c(=O)n2Cc2ccco2)c(S)cc1Cl = inactive
• CC(C)[C@@]12C[C@@H](OC(=O)COC(=O)c3ccccc3)[C@@](C)(O1)[C@@H]1CC[C@@H](C)[C@H]1[C@@H]2OC(=O)/C=C/c1ccccc1 = inactive
• CCc1ccc(Oc2c(-c3ccc(OCCc4cccc(C(F)(F)F)c4)cc3O)n[nH]c2C(F)(F)F)cc1 = inactive
• COc1cccc2nc(Nc3cccc(NC(=O)c4ccc(N5CCN(C)CC5)c(C(F)(F)F)c4)c3)ccc12 = inactive
• COc1ccc2[nH]c(C(=O)OCc3ccc4c(Br)cc(Br)c(O)c4n3)cc2c1 = inactive
• Cc1cc(O)ccc1C1(c2ccc(O)cc2C)OC(=O)c2ccccc21 = inactive
• C[C@@]12CC[C@@H](O)C[C@@H]1CC[C@H]1[C@H]2CC[C@@]2(C)[C@H](c3ccc(=O)oc3)CC[C@@]12O = active
• c1cc[n+](Cc2c3ccccc3cc3c2ccc2ccccc23)cc1 = inactive
• COc1cc2c(Nc3ccc(-c4ccc(N)cc4)cc3)ncnc2c(OC)c1OC = inactive
• COc1ccccc1CNCCCN1C(=O)c2ccc3c4c(ccc(c24)C1=O)C(=O)N(CCCNCCCCNCCCN)C3=O = inactive

###

system: SF-295 CNS; experiment: NCI tumour cell line growth inhibition, 48 h
Measurement Label: TGI

* O=C1c2ccccc2C(=O)c2c1oc1cc(O)c(Cl)cc21 | 9.46 µM
* C=C(C)COc1ccc2c(c1)CCC1C2CCC2(C)C(=O)/C(=N/O)CC12 (stereo not given) | 19.3 µM
* c1ccc2c(c1)CCN1CCc3ccccc3C1C2 (stereo not given) | > 100 µM
* CN1CCS(=O)(=O)NC(Cc2ccccc2)C(=O)N2CCCC2C1=O (stereo not given) | > 100 µM
* Cc1ccc(S(=O)(=O)c2ccc(C)cc2[N+](=O)[O-])c([N+](=O)[O-])c1 | > 100 µM
* CCn1c2ccccc2c2ccc(C3C4C(=O)N(c5cccc6ccccc56)C(=O)C4ON3C(C(N)=O)c3ccccc3)cc21 (stereo not given) | > 25 µM
* CC(=O)Oc1ccc(C2OC(c3ccc4ccccc4c3OC(C)=O)=NN2C(C)=O)c(OC(C)=O)c1 (stereo not given) | 14.8 µM
* O=C(c1ccccc1)c1ccc(N2C(=O)/C(=C/c3ccccc3S)N=C2c2ccccc2)c(N2C(=O)/C(=C/c3ccccc3S)N=C2c2ccccc2)c1 | > 100 µM
* C[C@@H](NC1CCCC[C@@H]1O)c1ccccc1 (stereo not given in full) | > 100 µM
* CCN(N=O)C1C2(CCCC2)NC(=O)C12CCCC2 (stereo not given) | > 100 µM
* Cc1c2c(n3c(nc4ccccc43)c1C#N)N(c1ccc(F)cc1)CC2 | > 100 µM
* Cn1c2ncccc2n2c(=O)cc(O)cc12 | > 100 µM
* O=C(c1ccccc1)c1ccc(N2C(=O)/C(=C/c3cccc(Oc4ccccc4)c3)N=C2c2ccccc2)c(N2C(=O)/C(=C/c3cccc(Oc4ccccc4)c3)N=C2c2ccccc2)c1 | > 100 µM
* CCOC(=O)/C(C1=NCCN1C)=C(\O)c1ccccc1 | > 100 µM
* COc1ccc2c(c1)OCC1c3cc(OC)c4ccccc4c3OC21 (stereo not given) | 6.91 µM
* Nc1ccc(Oc2ccc(C34CC5C6CC7(c8ccc(Oc9ccc(N)cc9)cc8)CC5C(C3)C(C7)C6C4)cc2)cc1 | > 100 µM
* NC(=O)c1c[nH]c2ncnc(N)c12 | > 100 µM
* CC(=Nc1ccc(Cl)cc1)c1ccncc1 | > 100 µM
* Nc1nc2ccc(CNc3ccc(C(=O)NC(CC(=O)O)C(=O)O)cc3)cc2c(=O)[nH]1 (stereo not given) | > 28.7 µM
* Cc1csc2nc(-c3cc([N+](=O)[O-])c(Cl)cc3Cl)c(/C=N/N=C(N)N)n12 | 38.8 µM
